Test system: Escherichia coli
TEST: Activity of Escherichia coli phenylalanine-sensitive DAH7P synthase type 1alpha by spectrophotometry in the presence of Mn2+
MEASURED_QUANTITY: Km (µM)
Output spec: scalar in µM, unitless text.

Sample "O=C[C@H](O)CCOP(=O)(O)O" — what was its Km?
2700

Sample "O=C[C@H](O)[C@H](O)COP(=O)(O)O" — what was its Km?
39

Sample O=CC(O)CCOP(=O)(O)O (racemic) — what was its Km?
2600

Sample "O=CC[C@H](O)COP(=O)(O)O" — what was its Km?
410
